Data credit: the emibetuzumab library of Makowski et al. (2022)

B1: VH:VL chains; a variant is named by its letters at X, in order (parent)
chain 1: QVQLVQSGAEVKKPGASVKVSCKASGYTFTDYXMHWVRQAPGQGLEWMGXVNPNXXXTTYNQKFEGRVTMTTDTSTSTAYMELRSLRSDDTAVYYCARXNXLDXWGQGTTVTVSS
chain 2: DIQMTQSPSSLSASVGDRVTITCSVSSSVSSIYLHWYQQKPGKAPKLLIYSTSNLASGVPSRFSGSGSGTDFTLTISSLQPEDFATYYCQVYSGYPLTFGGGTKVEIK

# Variants of: B1
# PROTOCOL_DESCRIPTION: yeast display scFab, FACS + sequencing
# EXPERIMENTAL_PARAMETERS: with MET
Some of the results follow. The true hit rate is not given.
EXPERIMENTAL_ENDPOINT: antigen binding call

Query: antigen binding call; subject: DAGEAAGD
no binding

Again, but for SEARSSGV
no binding

Again, but for VRGGSDVD
no binding

Again, but for FAAGGAWA
no binding

Again, but for VEGGTDVA
no binding

Again, but for YRRRGSAF
binds

Report antigen binding call for each item below.
1. YAGKTAWS
2. STTGGDGV
3. VRERGDAS
4. YRAKSSGV
5. DEAKAAVD
6. DKRKGVAF

1: no binding; 2: no binding; 3: no binding; 4: binds; 5: no binding; 6: no binding

Report antigen binding call for each item below.
1. YRARSSGV
2. VRRGGSGD
3. FRGGGSVS
4. DKGGAAGD
5. VATRGFWD
6. DREEGAGV

binds
binds
binds
no binding
no binding
no binding

Report antigen binding call for each item below.
1. STGTSDLY
2. DRGRDAWS
3. VRTRGSWD
4. DGGKNDLA
5. YGAGDFGA
6. VRTEDDWS

1: no binding; 2: no binding; 3: binds; 4: no binding; 5: no binding; 6: no binding
